tested on: human colon carcinoma cells (HT-29); assay: XTT cell proliferation assay, HT-29 cells, 48 h; type: cell-based; details: 25 μM compound, read-out: % Survival
resultType: viability at 25 µM (%)

INSERT INTO assay_data (compound, studysystem, obsvalue) VALUES
  ('Cc1[nH]c2ccccc2c1-c1nc(-c2ccc(N(C)C)cc2)c(-c2ccc(N(C)C)cc2)[nH]1 [Compound 11]', 'human colon carcinoma cells (HT-29)', 108),
  ('Cc1[nH]c2ccc(Br)cc2c1-c1nc(-c2ccc(Oc3ccccc3)cc2)c(-c2ccc(Oc3ccccc3)cc2)[nH]1 [Compound 39]', 'human colon carcinoma cells (HT-29)', 96.2),
  ('Cc1[nH]c2ccccc2c1-c1nc(-c2ccc(-c3ccccc3)cc2)c(-c2ccc(-c3ccccc3)cc2)[nH]1 [Compound 40]', 'human colon carcinoma cells (HT-29)', 79.1),
  ('O=[N+]([O-])c1ccc(-c2[nH]c(-c3c[nH]c4ccc(Br)cc34)nc2-c2ccccc2)cc1 [Compound 34]', 'human colon carcinoma cells (HT-29)', 22.8),
  ('COc1ccc(-c2nc(-c3ccccc3)c(-c3ccccc3)[nH]2)c(OC)c1 [Compound 73]', 'human colon carcinoma cells (HT-29)', 65),
  ('Brc1ccc2[nH]cc(-c3nc(-c4ccccc4)c(-c4ccccc4)[nH]3)c2c1 [Compound 6]', 'human colon carcinoma cells (HT-29)', 11.7),
  ('COc1ccc(-c2nc(-c3c(C)[nH]c4ccccc34)[nH]c2-c2ccc(OC)cc2)cc1 [Compound 9]', 'human colon carcinoma cells (HT-29)', 68.3),
  ('Brc1ccc2[nH]cc(-c3nc4c5ccccc5c5ccccc5c4[nH]3)c2c1 [Compound 45]', 'human colon carcinoma cells (HT-29)', 88.9),
  ('COC(=O)c1ccc2c(-c3nc(-c4ccccc4)c(-c4ccccc4)[nH]3)c[nH]c2c1 [Compound 83]', 'human colon carcinoma cells (HT-29)', 100),
  ('c1ccc2c(-c3nc4c5ccccc5c5ccccc5c4[nH]3)c[nH]c2c1 [Compound 46]', 'human colon carcinoma cells (HT-29)', 16.1),
  ('Cc1[nH]c2ccccc2c1-c1nc(-c2ccccc2)c(-c2ccc(F)cc2)[nH]1 [Compound 35]', 'human colon carcinoma cells (HT-29)', 44.1),
  ('Cc1[nH]c2ccccc2c1-c1nc(-c2ccccc2)c(-c2ccc([N+](=O)[O-])cc2)[nH]1 [Compound 33]', 'human colon carcinoma cells (HT-29)', 56.1),
  ('Cc1[nH]c2ccccc2c1-c1nc2c3ccccc3c3ccccc3c2[nH]1 [Compound 44]', 'human colon carcinoma cells (HT-29)', 63.6),
  ('Cc1[nH]c2ccccc2c1-c1nc(-c2ccccc2)c(-c2ccc(Br)cc2)[nH]1 [Compound 42]', 'human colon carcinoma cells (HT-29)', 59.9),
  ('Fc1ccc(-c2[nH]c(-c3c[nH]c4ccc(Br)cc34)nc2-c2ccccc2)cc1 [Compound 36]', 'human colon carcinoma cells (HT-29)', 31.6),
  ('Clc1ccc(-c2[nH]c(-c3c[nH]c4ccc(Br)cc34)nc2-c2ccccc2)cc1 [Compound 32]', 'human colon carcinoma cells (HT-29)', 22.7),
  ('Clc1ccc(-c2nc(-c3c[nH]c4ccc(Br)cc34)[nH]c2-c2ccc(Cl)cc2)cc1 [Compound 20]', 'human colon carcinoma cells (HT-29)', 100),
  ('Cc1[nH]c2ccccc2c1-c1nc(-c2ccc(Cl)cc2)c(-c2ccc(Cl)cc2)[nH]1 [Compound 19]', 'human colon carcinoma cells (HT-29)', 106);
